Molecular target: Human immunodeficiency virus type 1 reverse transcriptase (Human immunodeficiency virus 1) (UniProt Q72547)
Experiment: Compounds were evaluated for anti-RT activity by MTT dose and % cell / viability was reported at 13 days of culture
Assay type: functional
Could you please report measured Cell viability for the items listed next?

Consider the following illustrative entries.
compound: CCCCCCCCCCCCCCCCOP(=O)(OC[C@H]1OC(O)[C@H](O)[C@@H](O)[C@@H]1O)OC[C@H]1OC(n2cc(C)c(=O)[nH]c2=O)C[C@@H]1N=[N+]=[N-] (some centres undefined)
Cell viability: 39%
//
compound: Cc1cn([C@H]2C[C@H](N=[N+]=[N-])[C@@H](COP(=O)(O)OC[C@H]3OC(O)[C@H](O)[C@@H](O)[C@@H]3O)O2)c(=O)[nH]c1=O (some centres undefined)
Cell viability: 17%
//
compound: CCCCCCCCCCCCCCCCOP(=O)(OCCO[C@H]1O[C@H](CO)[C@@H](O)[C@H](O)[C@@H]1O)OCC1OC(n2cc(C)c(=O)[nH]c2=O)CC1N=[N+]=[N-] (some centres undefined)
Cell viability: 12%

Record request: Cell viability value, item Cc1cn([C@H]2C[C@H](N=[N+]=[N-])[C@@H](CO)O2)c(=O)[nH]c1=O
34%
